These entries and their values trace back to ChEMBL document CHEMBL1142992.

# test: Intrinsic clearance in rat liver microsomes
# Assay type: ADME, Microsome
Could you please mark Satisfied for values of CLint scaled below 2 mL/min/g and Not satisfied for values at or above it?

• O=C1NC(c2cccs2)(c2cccs2)CN1C1CCN(Cc2cccc(F)c2)CC1 = Not satisfied
• O=C1NC(c2ccccc2)(c2ccccc2)CN1C1CCN(Cc2ccccc2)CC1 = Not satisfied
• O=C1NC(c2cccs2)(c2cccs2)CN1C1CCN(Cc2ccccc2)CC1 = Not satisfied
• O=C1NC(c2ccc(F)cc2)(c2ccc(F)cc2)CN1C1CCN(Cc2cccc(Cl)c2)CC1 = Satisfied
• O=C1NC(c2ccc(F)cc2)(c2ccc(F)cc2)CN1C1CCN(Cc2cccc(F)c2)CC1 = Satisfied
